ASSAY_COMMENT: in vitro
Design: species or system HB2, HEK293
EXPERIMENTAL_CONTEXT: human, ccd841 cells
METRIC_NAME: viability at 48 h, 10 µM (%)
One number for each entry, in %.

Example entries and their recorded answers appear below.
Ask | // returns reported viability at 48 h, 10 µM for input COc1ccc(C2CCCN2C(=O)CCl)cc1 (centres unmarked) [PCM-0102938]
Reply | 24.3

Ask | Given O=C(CCl)Nc1ccc2c(c1)C(=O)c1ccccc1C2=O [PCM-0102194] , state its recorded viability at 48 h, 10 µM.
Reply | 13.7

Ask | Can you look up the measured viability at 48 h, 10 µM of COc1ccc(C2=CCN(C(=O)CCl)CC2)cc1 [PCM-0102929] for me?
Reply | 90.4

Ask | Data request, read-out viability at 48 h, 10 µM, for O=C(CCl)Nc1ccc(Br)cc1F [PCM-0102926]
Reply | 59.9

Please give viability at 48 h, 10 µM, item by item, for the list that follows.
1. C=CC(=O)N1CCn2nc(C)nc2C1 [PCM-0102605]
2. O=C(CCl)Nc1ccc([N+](=O)[O-])cc1Br [PCM-0102848]
3. O=C(CCl)Nc1cc(C(=O)O)ccc1Cl [PCM-0102590]

Reply |
1: 104; 2: 68.4; 3: 102
